Molecular target: T1, Peptide F (monkey PAR-2), N-terminal biotinylated (Monkey (Macaca mulatta), N-terminal biotin via G4S linker)
T1 construct: also called Peptide F N-Term
T1 sequence (peptide, as listed by the source): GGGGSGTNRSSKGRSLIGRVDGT
Assay: SPR, antibody captured
Method: Equilibrium dissociation constants (KD values) for antigen binding to selected purified PAR-2 antibodies were determined by surface kinetics using a real-time surface plasmon resonance biosensor assay. […] Antigen-antibody binding and dissociation were monitored in real time at room temperature. […] ND: not determined.
measurementName: T1/2 (min)

- binder: "H4H585P (antibody, human IgG4, V domains shown, also called H1H585P variable regions) VH: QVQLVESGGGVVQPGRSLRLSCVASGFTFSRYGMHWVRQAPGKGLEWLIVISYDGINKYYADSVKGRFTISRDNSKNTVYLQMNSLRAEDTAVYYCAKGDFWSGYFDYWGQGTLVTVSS VL: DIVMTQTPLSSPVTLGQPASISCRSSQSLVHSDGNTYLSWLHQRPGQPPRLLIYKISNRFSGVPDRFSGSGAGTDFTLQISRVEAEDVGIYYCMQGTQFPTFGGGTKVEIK"
  measurementName: "T1/2"
  unitOfMeasurement: "min"
  measured: 2
- binder: "H4H583P (antibody, human IgG4, V domains shown, also called H1H583P variable regions) VH: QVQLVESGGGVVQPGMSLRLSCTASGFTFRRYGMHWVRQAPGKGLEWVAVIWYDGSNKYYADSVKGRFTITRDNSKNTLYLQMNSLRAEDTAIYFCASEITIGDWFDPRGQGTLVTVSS VL: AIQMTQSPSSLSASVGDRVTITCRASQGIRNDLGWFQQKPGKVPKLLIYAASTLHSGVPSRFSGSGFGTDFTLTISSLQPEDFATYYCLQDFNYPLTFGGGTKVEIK"
  measurementName: "T1/2"
  unitOfMeasurement: "min"
  measured: 0.47
- binder: "H4H581P (antibody, human IgG4, V domains shown, also called mAb H4H581P; H1H581P variable regions) VH: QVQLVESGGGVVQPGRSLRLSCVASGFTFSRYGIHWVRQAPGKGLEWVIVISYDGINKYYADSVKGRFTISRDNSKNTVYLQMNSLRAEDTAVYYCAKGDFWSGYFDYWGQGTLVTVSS VL: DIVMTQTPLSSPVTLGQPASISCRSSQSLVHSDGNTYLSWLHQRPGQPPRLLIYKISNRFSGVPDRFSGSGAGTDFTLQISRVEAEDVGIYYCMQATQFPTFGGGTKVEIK"
  measurementName: "T1/2"
  unitOfMeasurement: "min"
  measured: 0.53
- binder: "H4H579P (antibody, human IgG4, V domains shown, also called H1H579P variable regions) VH: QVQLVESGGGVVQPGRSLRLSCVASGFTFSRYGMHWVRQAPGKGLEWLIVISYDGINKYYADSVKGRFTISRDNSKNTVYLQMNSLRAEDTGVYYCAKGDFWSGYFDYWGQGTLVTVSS VL: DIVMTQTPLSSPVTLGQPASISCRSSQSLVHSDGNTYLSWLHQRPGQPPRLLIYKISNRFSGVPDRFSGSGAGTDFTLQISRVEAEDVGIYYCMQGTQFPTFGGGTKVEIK"
  measurementName: "T1/2"
  unitOfMeasurement: "min"
  measured: 2
- binder: "H4H588N (antibody, human IgG4, V domains shown, also called H2M588N variable regions) VH: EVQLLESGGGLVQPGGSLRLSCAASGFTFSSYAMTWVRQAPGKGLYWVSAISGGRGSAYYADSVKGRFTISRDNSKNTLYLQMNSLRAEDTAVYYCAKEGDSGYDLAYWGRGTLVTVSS VL: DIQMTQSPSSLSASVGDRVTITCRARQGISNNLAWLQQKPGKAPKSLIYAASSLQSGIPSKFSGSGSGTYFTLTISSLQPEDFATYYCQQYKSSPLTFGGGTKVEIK"
  measurementName: "T1/2"
  unitOfMeasurement: "min"
  measured: 20
- binder: "H4H584P (antibody, human IgG4, V domains shown, also called H1H584P variable regions) VH: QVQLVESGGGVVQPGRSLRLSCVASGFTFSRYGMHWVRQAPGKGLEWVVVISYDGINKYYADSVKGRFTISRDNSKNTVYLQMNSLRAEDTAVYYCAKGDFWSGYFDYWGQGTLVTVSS VL: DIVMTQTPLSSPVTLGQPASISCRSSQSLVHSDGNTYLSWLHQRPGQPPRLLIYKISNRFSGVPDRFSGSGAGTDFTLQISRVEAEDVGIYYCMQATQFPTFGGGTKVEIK"
  measurementName: "T1/2"
  unitOfMeasurement: "min"
  measured: 0.23

The origin of these recorded values is patent US20110059095A1.
